All values here come from patent US5795907A.

target.or.test.system: CCKB receptor (Mus musculus, UniProt P56481)
Construct: The cortex was dissected, weighed and homogenised in 40ml ice-cold buffer; tissue Charles River (supplier of the CD1 mice); host or cells: cerebral cortex membranes of male CD1 mice
Sequence (P56481 whole entry): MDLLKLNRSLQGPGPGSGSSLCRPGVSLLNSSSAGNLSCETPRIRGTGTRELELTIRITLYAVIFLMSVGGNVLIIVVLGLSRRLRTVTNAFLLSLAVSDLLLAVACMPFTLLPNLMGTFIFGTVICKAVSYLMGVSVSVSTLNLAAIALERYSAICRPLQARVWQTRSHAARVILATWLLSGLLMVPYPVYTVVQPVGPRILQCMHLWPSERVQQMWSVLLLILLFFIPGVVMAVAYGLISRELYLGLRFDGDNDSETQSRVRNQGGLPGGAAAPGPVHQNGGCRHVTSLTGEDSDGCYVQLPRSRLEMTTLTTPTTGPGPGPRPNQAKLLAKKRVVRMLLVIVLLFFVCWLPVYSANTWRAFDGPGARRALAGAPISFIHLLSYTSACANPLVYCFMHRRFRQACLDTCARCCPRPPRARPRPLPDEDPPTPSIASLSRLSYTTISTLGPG
experiment.notes: CCKB receptor radioligand binding assay in mouse cortical membranes ([125I]-CCK8S)
reported.conditions: [125I]-CCK8S 200 pM, 150 min at 21±3°, read-out: CCKB pKi (converted)
Recorded Ki for the following compounds
property.label: Ki (nM)

INSERT INTO results (compound, numeric_readout) VALUES
  ('O=C(O)c1cc(NC(=O)[C@H](Cc2ccccc2)NC(=O)c2cc3[nH]c4ccccc4c3cc2C(=O)NCC23CC4CC(CC(C4)C2)C3)cc(C(=O)O)c1 [Example 52]', 63.1),
  ('O=C(O)CNC(=O)[C@H]1CCCN1C(=O)c1cc2ccccc2cc1C(=O)NCC12CC3CC(CC(C3)C1)C2 [Example 11]', 1260),
  ('O=C(O)CNC(=O)[C@H]1CCCN1C(=O)c1cc2[nH]cnc2cc1C(=O)NCC12CC3CC(CC(C3)C1)C2 [Example 76]', 631);
